- assayed.target: caspase-3 (Homo sapiens, UniProt P42574)
- Construct: as the catalytic domain consisting of large p20 and small p10 subunits without prodomain; made in house
- Sequence (P42574 29-175 limits assumed): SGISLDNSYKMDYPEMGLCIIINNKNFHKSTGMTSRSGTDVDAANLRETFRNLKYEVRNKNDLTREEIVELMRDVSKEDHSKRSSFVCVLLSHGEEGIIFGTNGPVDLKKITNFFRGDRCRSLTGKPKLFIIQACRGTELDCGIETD
- Sequence (P42574 176-277 limits assumed): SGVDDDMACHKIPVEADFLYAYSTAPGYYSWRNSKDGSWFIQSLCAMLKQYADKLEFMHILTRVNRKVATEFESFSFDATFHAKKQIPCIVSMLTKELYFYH
- run.description: Caspase-3 enzymatic assay with divalent R110 substrates
- Format: biochemical
- protocol.conditions: caspase-3, (DEVD)2R110 substrate
pIC50: −log10 of the molar value.
endpoint.name: pIC50

pIC50 lookup needed for COc1ccc(-c2cc(C(=O)N[C@@H](CO)Cc3cccc(C#N)c3)co2)cc1OC [Compound 3] , thanks.
< 4.00

----------
- assayed.target: caspase-6 (Homo sapiens)
- Construct: Residues 24-179 and 194-293 from caspase-6 cDNA (Origene) were cloned into pET-24b and pET-23b vectors; 6x histidine tag (C); made in house; host or cells: E. coli BL21 (DE3) pLysS
- Sequence (P55212 24-179): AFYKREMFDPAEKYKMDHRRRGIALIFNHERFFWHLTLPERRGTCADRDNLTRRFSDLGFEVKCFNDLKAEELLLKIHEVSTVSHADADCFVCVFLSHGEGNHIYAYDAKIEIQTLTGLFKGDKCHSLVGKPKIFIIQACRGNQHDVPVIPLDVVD
- Sequence (P55212 194-293): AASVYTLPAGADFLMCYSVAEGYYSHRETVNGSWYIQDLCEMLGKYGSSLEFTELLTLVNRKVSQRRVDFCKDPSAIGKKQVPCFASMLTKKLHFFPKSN
- run.description: Caspase-6 enzymatic assay with fluorogenic tetrapeptide substrates
- Type: biochemical
- protocol.conditions: (VEID)2R110 substrate; calculated from IC50
endpoint.name: Ki
# number then unit; no other words

Ki lookup needed for COc1ccc(-c2cc(C(=O)N[C@@H](CO)Cc3cccc(C#N)c3)co2)cc1OC , thanks.
4 nM

----------
- assayed.target: caspase-6 (Homo sapiens)
- Construct: Residues 24-179 and 194-293 from caspase-6 cDNA (Origene) were cloned into pET-24b and pET-23b vectors; 6x histidine tag (C); made in house; host or cells: E. coli BL21 (DE3) pLysS
- run.description: Caspase-6 enzymatic assay with fluorogenic tetrapeptide substrates
- Type: biochemical
- protocol.conditions: caspase-6 cleavage of (VEID)2R110 substrate; read-out: IC50
endpoint.name: pIC50
Numbers only, as −log10 of the molar value.

pIC50 lookup needed for COc1ccc(-c2cc(C(=O)NC(Cc3ccccc3)C(=O)O)c(C)o2)cc1OC (stereo not shown) , thanks.
4.70

src = paper PMC3515450
